Assay comment: log P by HPLC on reversed-phase column (C18), EEC Directive 79/831 Annex V.A8
Type: physicochemical
Assay conditions: C18, 40° C., neutral
Provide the recorded log p neutral for the entries that follow.
One number for each entry.

Study these solved cases before continuing.
Molecule	log p neutral
CC(C)(C)c1cc(Oc2cc(Cl)c(N=CN3CCCCC3)cc2Cl)ccc1Cl [compound 814]	7.08
CCN(C)C=Nc1cc(C)c(Oc2cccc(-c3cccnc3Cl)c2)cc1C [compound 130]	4.53
CCN(C)C=Nc1cc(Cl)c(Oc2ccc(Br)c(C(C)C)c2)cc1C [compound 589]	6.58

Could you report log p neutral for every entry in the following list?
1. CCN(C)C=Nc1cc(C)c(Oc2ccc(Cl)c(C(C)(C)C)c2)cc1Cl [compound 903]
2. CCN(C)C=Nc1cc(C)c(-c2ccc(Cl)c(C(F)(F)F)c2)cc1Cl [compound 928]

6.54
5.31

###

For each entry below, report its log p HCO2H value.
Assay comment: log P by HPLC on reversed-phase column (C18), EEC Directive 79/831 Annex V.A8
Format: physicochemical
Assay conditions: C18, 40° C., aqueous formic acid / acetonitrile
Give bare numbers.

CCN(C)C=Nc1cc(C)c(Oc2ccc(C(C)(C)C)cc2)cc1Cl 2.69
CCN(C)C=Nc1cc(Cl)c(Oc2ccc(Cl)c(C(C)C)c2)cc1C 2.95
CC(C)N(C)C=Nc1cc(C(F)(F)F)c(Oc2ccc(Cl)c(C(F)(F)F)c2)cc1Cl 3.08
CCN(C)C=Nc1cc(C)c(Oc2ccc(Cl)c(C(F)(F)F)c2)cc1Cl 2.44
CCN(C)C=Nc1cc(Cl)c(Oc2cccc(C(C)(C)C)c2)cc1Cl 2.79
CCN(C)C=Nc1cc(C)c(C=Cc2ccccc2C)cc1C 2.21
Cc1cc(Oc2ccc(Cl)c(C(C)C)c2)c(Cl)cc1N=CN(C)C1CC1 2.96
CCN(C)C=Nc1cc(Cl)c(Oc2cc(C(C)(C)C)nn2C)cc1C 1.84

Recorded log p HCO2H for Cc1cc(N=CN2CCCCC2)c(Cl)cc1Oc1cccc(C(C)(C)C)c1 , please?
2.79

###

Assay comment: log P by HPLC on reversed-phase column (C18), EEC Directive 79/831 Annex V.A8
Format: physicochemical
Assay conditions: C18, 40° C., 0.1% aqueous phosphoric acid / acetonitrile
Readout name: log p H3PO4
Answers are plain numbers.

Solved cases (5 shown):
CCN(C)C=Nc1cc(C)c(Oc2ccc(C(C)(C)C)cc2)cc1Cl 2.87
Cc1cc(-c2ccc(Cl)cc2)c(F)cc1N=CN(C)C 2.04
CC(C)(C)c1cccc(Oc2cc(Cl)c(N=CN3CCCCC3)cc2Cl)c1 2.81
CCN(C)C=Nc1cc(C)c(Oc2ccc(Cl)c(C(C)C)c2)cc1Cl 2.88
CC(C)(C)c1cc(Oc2cc(Cl)c(N=CN3CCCCC3)cc2C(F)(F)F)ccc1Cl 3.61

Hi, could you look up log p H3PO4 for each item in my list?
1. CC(C)N(C)C=Nc1cc(Cl)c(Oc2ccc(Cl)c(C(C)(C)C)c2)cc1Cl
2. CCN(C)C=Nc1cc(C)c(Oc2cccc(C(C)(C)C)c2)cc1Cl
3. CCN(C)C=Nc1cc(C)c(Oc2ccc(C(C)C)cc2)cc1Cl
4. Cc1cc(N=CN2CCCCC2)c(Cl)cc1Oc1ccc(C(C)(C)C)cc1

[3.35, 2.76, 2.61, 3.01]

###

Assay comment: log P by HPLC on reversed-phase column (C18), EEC Directive 79/831 Annex V.A8
Format: physicochemical
Assay conditions: C18, 40° C., neutral
Readout name: log p neutral
Numbers only.

Example compounds with recorded log p neutral:
Compound	Measurement
CCN(C)C=Nc1cc(C)c(Oc2cc(F)cc(C(F)(F)F)c2)cc1C	5.54
CC(C)N(C)C=Nc1cc(Cl)c(Oc2ccc(Cl)c(C(C)(C)C)c2)cc1Cl	6.81
Cc1cc(N=CN(C)C(C)C)c(Cl)cc1Oc1ccc(Cl)c(C(C)C)c1	6.45
CC(C)N(C)C=Nc1cc(Cl)c(Oc2cccc(C(C)(C)C)c2)cc1Cl	6.13

For every item in the list below, what is its measured log p neutral?
1. CC(C)N(C)C=Nc1cc(Cl)c(Oc2ccc(Cl)c(C(F)(F)F)c2)cc1Cl
2. CCN(C)C=Nc1cc(C)c(Oc2ccc(Cl)c(C(C)(C)C)c2)cc1C
3. CN(C)C=Nc1cc(C(F)(F)F)c(Oc2ccc(Cl)c(C(F)(F)F)c2)cc1Cl
4. CCN(C)C=Nc1cc(C)c(-c2ccc(C(C)(C)C)cc2)cc1C
5. CCC(C)N(C)C=Nc1cc(Cl)c(Oc2ccc(Cl)c(C(C)C)c2)cc1C (stereo not drawn)

[5.88, 5.96, 5.39, 6.30, 7.14]

###

Assay comment: log P by HPLC on reversed-phase column (C18), EEC Directive 79/831 Annex V.A8
Format: physicochemical
Assay conditions: C18, 40° C., neutral
hey, just use y if measured log p neutral is less than 6, otherwise n

Below, 8 molecules whose answers are already recorded.
Molecule	Answer label
CCCN(C)C=Nc1cc(C)c(Oc2ccc(Br)c(C(C)C)c2)cc1C	n
CCN(C)C=Nc1cc(C)c(Oc2nc(C(C)(C)C)ns2)cc1Cl	y
Cc1cc(Oc2ccc(Cl)c(C(C)C)c2)c(C)cc1N=CN(C)C(C)C	n
CCCN(C)C=Nc1cc(Cl)c(Oc2ccc(Cl)c(CC)c2)cc1C	n
Cc1cc(Oc2ccc(Cl)c(C(F)(F)F)c2)c(C)cc1N=CN1CCCCC1	n
Cc1cc(Oc2cc(F)cc(Br)c2)c(C)cc1N=CN(C)C(C)C	n
CCN(C)C=Nc1cc(Cl)c(Oc2ccc(Cl)c(C(C)(C)C)c2)cc1Cl	n
Cc1cc(N=CN(C)C(C)C)c(Cl)cc1Oc1ccc(Cl)c(C(C)(C)C)c1	n

Now for a further molecule.
State whether 6 exceeds log p neutral recorded for Cc1cc(Oc2cc(C(C)C)nn2C)c(Cl)cc1N=CN1CCCCC1C (stereo not drawn) .
y

###

Assay comment: log P by HPLC on reversed-phase column (C18), EEC Directive 79/831 Annex V.A8
Type: physicochemical
Assay conditions: C18, 40° C., 0.1% aqueous phosphoric acid / acetonitrile
Decision: log p H3PO4 beneath 3 gives label 1; log p H3PO4 meeting or exceeding 3 gives label 0.

Molecule	Answer label
CCN(C)C=Nc1cc(Cl)c(Oc2ccc(Cl)c(C(F)(F)F)c2)cc1Cl [compound 816]	label 1
Cc1cc(N=CN(C)C(C)C)c(Cl)cc1Oc1ccc(Cl)c(C(C)(C)C)c1 [compound 904]	label 1
Cc1cc(N=CN2CCCCC2)c(Cl)cc1Oc1ccc(C(C)C)cc1 [compound 891]	label 1
Cc1cc(N=CN2CCCCC2)c(Cl)cc1Oc1ccc(Cl)c(C(C)C)c1 [compound 901]	label 0

Item Cc1cc(N=CN2CCCCC2)c(Cl)cc1Oc1cccc(Oc2ccccc2)c1 [compound 882] : log p H3PO4 beneath 3, strictly?
label 1

Lookup Cc1cc(N=CN(C)C)c(Cl)cc1Oc1ccc(Cl)c(C(F)(F)F)c1 [compound 892]
label 1

###

Assignment: determine reported log p HCO2H for the given compounds.
Assay comment: log P by HPLC on reversed-phase column (C18), EEC Directive 79/831 Annex V.A8
Type: physicochemical
Assay conditions: C18, 40° C., aqueous formic acid / acetonitrile
Answers are plain numbers.

Check out these entries, answers already filled in.
CCN(C)C=Nc1cc(C)c(Oc2ccc(C(C)C)cc2)cc1Cl 2.45
CCCN(C)C=Nc1cc(Cl)c(Oc2ccc(Cl)c(CC)c2)cc1C 2.84
CCN(C)C=Nc1cc(Cl)c(Oc2ncnc(Oc3ccc(Cl)cc3)c2F)cc1C 2.20
CCN(C)C=Nc1cc(C)c(Oc2ccc(Cl)c(C(C)(C)C)c2)cc1Cl 2.8

We now examine a further compound.
Please report the recorded log p HCO2H for CCN(C)C=Nc1cc(C(F)(F)F)c(Oc2ccc(Cl)c(C(F)(F)F)c2)cc1Cl .
2.98

###

Provide the reported log p neutral of each item.
Assay comment: log P by HPLC on reversed-phase column (C18), EEC Directive 79/831 Annex V.A8
Type: physicochemical
Assay conditions: C18, 40° C., neutral
Numbers only.

In the examples that follow, each entry is paired with its recorded log p neutral.
CCN(C)C=Nc1cc(C)c(Oc2ccc(C(C)C)cc2)cc1Cl 5.58
CCN(C)C=Nc1cc(Cl)c(Oc2cc(C(C)C)nn2C)cc1C 4.04
Cc1cc(-c2ccc(Cl)cc2C)c(C)cc1N=CN(C)C 5.62
CN(C)C=Nc1cc(Cl)c(Oc2ccc(Cl)c(C(C)(C)C)c2)cc1Cl 6.13

# context switch: different molecule, same log p neutral
What value of measured log p neutral is listed for FC(F)(F)c1cc(Oc2cc(Cl)c(N=CN3CCCCC3)cc2C(F)(F)F)ccc1Cl ?
6.2

###

Assay comment: log P by HPLC on reversed-phase column (C18), EEC Directive 79/831 Annex V.A8
Format: physicochemical
Assay conditions: C18, 40° C., neutral
Readout name: log p neutral
Give bare numbers.

Reference set, count: 5
Compound	Measurement
CCN(C)C=Nc1cc(C)c(Oc2cccc(C(C)C)c2)cc1Cl [compound 875]	5.51
CCN(C)C=Nc1cc(C(F)(F)F)c(Oc2ccc(Cl)c(C(C)(C)C)c2)cc1Cl [compound 944]	6.63
CC(C)N(C)C=Nc1cc(Cl)c(Oc2ccccc2)cc1Cl [compound 802]	4.84
CCN(C)C=Nc1cc(C(F)(F)F)c(-c2ccc(C(C)(C)C)cc2)cc1Cl [compound 962]	6.15
CCN(C)C=Nc1cc(Cl)c(Oc2nc(C(C)(C)C)ns2)cc1Cl [compound 825]	5.25

For each of the items listed, what is its log p neutral?
1. CCN(C)C=Nc1cc(C)c(Oc2ccc(Cl)c(C(C)C)c2)cc1Cl [compound 898]
2. COc1cc(Oc2ccc(Cl)c(C(C)(C)C)c2)c(OC)cc1N=CN(C)C [compound 981]
3. Cc1cc(Oc2ccc(C#N)c(C(F)(F)F)c2)c(C)cc1N=CN1CCCCC1 [compound 228]
4. CCCN(C)C=Nc1cc(Cl)c(Oc2ccc(Cl)c(C(C)C)c2)cc1C [compound 571]

[6.12, 7.36, 5.35, 6.79]
